Entry source: ChEMBL document CHEMBL5226317

test system: MCF7; test: Antiproliferative activity against human MCF7 cells; type: functional, cell-based
pIC50: −log10 of the molar value.

{"smiles input": "CC[C@@]1(O)C(=O)OCc2c1cc1n(c2=O)Cc2c-1nc1ccccc1c2CN1CCN(C(=S)Nc2cccc3ccccc23)CC1", "pIC50": 6.10}

---

assay: Antiproliferative activity against human KB-VIN cells assessed as reduction in cell viability; type: functional, cell-based; details: KBVIN
pIC50: −log10 of the molar value.
measurement label: pIC50

{"smiles input": "CC[C@@]1(O)C(=O)OCc2c1cc1n(c2=O)Cc2c-1nc1ccccc1c2CN1CCN(C(=S)Nc2cccc3ccccc23)CC1", "assay value": 6.56}
